System: KB-3-1
Experiment: Cytotoxic Profiling of Annotated Libraries Using Quantitative High-Throughput Screening (AID 1296008); note: nearly all actives have a fitted effect of over 60% in size
Conditions: Five cell lines viability, CellTiter-Glo ATP luminescence, 48-72 h
Records with an inconclusive call do not appear. Calls of active or inactive are those of the source. Calls come from the whole dose curve; as a rule, active = well fitted inhibition curve with a large enough effect; inconclusive = small, poorly fitted or top-dose-only effect; inactive = flat fitted curve, though single readings scatter.
Measurement kind: outcome

- COC1=CC(=O)O[C@@H](/C=C/c2ccccc2)C1: inactive
- COC(=O)C1(C)CCC(O)C2(C)c3cc(O)c(C(C)C)cc3C(O)C(OC(C)=O)C12 (centres undefined): inactive
- Cc1c(Cl)cccc1S(=O)(=O)Nc1nc(CC(=O)N2CCN(C)CC2)cs1: inactive
- C[C@@H]1C(=O)O[C@H]2[C@H](O)[C@@]34[C@@H]5OC(=O)[C@@]3(O[C@@H]3OC(=O)[C@@H](O)[C@@]34[C@H](C(C)(C)C)[C@H]5O)[C@@]12O: inactive

* * *

Assay: qHTS for differential inhibitors of proliferation of Plasmodium falciparum line 3D7 (AID 1876)
Conditions: P. falciparum 3D7 proliferation inhibition; series mostly up to 28.7 µM
Records with an inconclusive call do not appear. Calls of active or inactive are those of the source. The call rests on the fitted dose curve; in most records, active means well fitted curve in the direction sought with a large enough effect; inconclusive means small, poorly fitted or top-dose-only effect, or another doubt; inactive means no such curve, though single readings can be large or run the other way.
Outcome codes: class 1 = active, class 0 = inactive

• O=[N+]([O-])c1ccc2nc(N3CCNCC3)ccc2c1 = class 1
• N[C@@H](Cn1oc(=O)[nH]c1=O)C(=O)O = class 0
• CCS(=O)(=O)Nc1cccc(C(=C2CCCCC2)c2cnc[nH]2)c1 = class 1
• O=C1C=CC(=O)C=C1 = class 0
• NC(=O)c1cc(N2CC2)c([N+](=O)[O-])cc1[N+](=O)[O-] = class 0
• NNC(N)=O = class 0
• C/C(O)=C(\C#N)C(=O)Nc1cc(Br)ccc1Br = class 0
• CCCN1CCCC2Cc3[nH]ncc3CC21 (stereo not drawn) = class 0
• Cc1c2ccncc2c(C)c2c1[nH]c1ccccc12 = class 1
• c1ccc2cc(CC3=NCCN3)ccc2c1 = class 0
• CC(=O)NBr = class 0
• CC(N)[C@H](O)c1ccc(O)c(O)c1 (stereo partly drawn) = class 0
• NC(=O)c1ccc(OCC(O)CN2CC=C(c3ccc(F)cc3)CC2)cc1 (stereo not drawn) = class 1

* * *

Listing of entries alongside the reported activity, negative = cell killing.
Experiment: Drug repurposing screens with cells derived from glioblastoma tumor samples (AID 1345199); note: % is set by controls: 0 for no effect and ±100 for the full control effect; nearly all actives have a fitted effect of over 40% in size
Settings: GBM patient neurospheres viability, ATP luminescence, 48 h; at 46 µM (top of the series); tumour line A
Records with an inconclusive call do not appear.
Measurement kind: activity, negative = cell killing (%)

* CCCCCl | -20.4
* ClCC1CO1 (stereo not given) | -27.8
* CCC1(c2ccccc2)C(=O)NC(=O)N(C)C1=O (stereo not given) | -23
* CNC(=O)OCC[N+](C)(C)C | -22.4
* C#CCN1CC(=O)N(COC(=O)C2C(C=C(C)C)C2(C)C)C1=O (stereo not given) | -23.1
* CN1c2ccccc2C(NCCCCCCC(=O)O)c2ccc(Cl)cc2S1(=O)=O (stereo not given) | -22.5
* S=C(S)N1CCNCC1 | -30
* Oc1cc(Cl)c(Cl)cc1Cl | -39.7
* ClC(Cl)(Cl)Cl | -14.3
* Cn1sc(Cl)cc1=O | -21.6
* CC(=O)OO | -24.9
* CCOC(=O)c1ccccc1C(=O)OCC | -28.3
* C[C@]12CC[C@H](OS(=O)(=O)O)CC1=CC[C@@H]1[C@@H]2CC[C@]2(C)C(=O)CC[C@@H]12 | -29.4
* O[C@H]1[C@H]2[C@H](O)CCCN2C[C@H]1O | -40.5
* CN[C@H]1C[C@@H](N)[C@H](O)[C@@H](O[C@@H]2O[C@H](CO)[C@H](O)[C@@H]3OC4(O[C@H]23)O[C@H](C(N)CO)[C@H](O)[C@H](O)[C@H]4O)[C@@H]1O (stereo not given in full) | -23.6
* CC1(C)[C@H](C=C(Cl)Cl)[C@H]1C(=O)OCc1c(F)c(F)cc(F)c1F | -26.8
* [S]=[Sb](=[S])[S][Sb](=[S])=[S] | -28.3
* CC(N)Cc1ccc(O)cc1 (stereo not given) | -18.1
* OC[C@@H](O)[C@H]1O[C@@H]2O[C@@H](C(Cl)(Cl)Cl)O[C@@H]2[C@H]1O | -29.4
* CCN(CC)C(=O)/C(Cl)=C(\C)OP(=O)(OC)OC | -32
* O=CC=O | -22.3
* CCC1(c2ccccc2)C(=O)NC(=O)NC1=O | -5.16
* CCC(C)(S(=O)(=O)CC)S(=O)(=O)CC | -5.61
* ClC=C(Cl)Cl | -33.6
* O=C(CS(=O)C(c1ccccc1)c1ccccc1)NO (stereo not given) | -19.6

* * *

Test: qHTS for differential inhibitors of proliferation of Plasmodium falciparum line 7G8 (AID 1815);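 note: parasite growth measured after three days of incubation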
Details: Plasmodium falciparum 7G8 proliferation inhibition; series mostly up to 28.7 µM
Records with an inconclusive call do not appear. Calls of active or inactive are those of the source. Calls come from the whole dose curve; as a rule, active = well fitted curve in the direction sought with a large enough effect; inconclusive = small, poorly fitted or top-dose-only effect, or another doubt; inactive = no such curve, though single readings can be large or run the other way.
Outcome codes: Yes for active, No for inactive

• C[Se]C[C@H](N)C(=O)O = No
• C[N+]1(C)CCOC(O)(c2ccc(-c3ccc(C4(O)C[N+](C)(C)CCO4)cc3)cc2)C1 (stereo not given) = No
• CN(N=O)c1cc(O)ccc1O = No
• COc1ccc(CNC(=O)/C=C/c2ccc3[nH]cc(CCN(C)C)c3c2)cc1 = Yes
• C=CCN1C[C@@H](C)N([C@H](c2ccc(C(=O)N(CC)CC)cc2)c2cccc(OC)c2)C[C@@H]1C = Yes
• CC(C)CC(NP(=O)(O)O[C@@H]1O[C@@H](C)[C@H](O)[C@@H](O)[C@H]1O)C(=O)NC(Cc1c[nH]c2ccccc12)C(=O)O (stereo not given in full) = No
• CCN(CC)c1ncnc2c1ncn2[C@@H]1O[C@H](COP(=O)(O)OP(=O)(O)C(Br)(Br)P(=O)(O)O)[C@@H](O)[C@H]1O = No
• NC(=O)c1cc(N2CC2)c([N+](=O)[O-])cc1[N+](=O)[O-] = No
• NNC(=O)c1ccc(O)cc1 = No
• CP(=O)(O)C1=CCNCC1 = No

* * *

Assay: qHTS for differential inhibitors of proliferation of Plasmodium falciparum line 7G8 (AID 1815);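 note: parasite growth measured after three days of incubation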; note: potency is the fitted concentration of half-maximal effect
Conditions: Plasmodium falciparum 7G8 proliferation inhibition; series mostly up to 28.7 µM
Inconclusive results are not listed. Active and inactive are the calls of the source. The call rests on the fitted dose curve; in most records, active means well fitted curve in the direction sought with a large enough effect; inconclusive means small, poorly fitted or top-dose-only effect, or another doubt; inactive means no such curve, though single readings can be large or run the other way.
Measurement kind: Potency

• CCCN(CCC)CCc1ccc(O)c(O)c1 = 12.6 µM (active)
• O=P(O)(O)C(Cl)(Cl)P(=O)(O)O = inactive
• Cc1c2ccncc2c(C)c2c1[nH]c1ccccc12 = 0.794 µM (active)
• NCC(CP(=O)(O)O)c1ccc(Cl)cc1 (stereo not drawn) = inactive
• Cc1[nH]c2ccc(O)cc2c1CCN = inactive
• Oc1ccc2c3c1O[C@H]1c4oc5ccccc5c4C[C@@]4(O)C(C2)N(CC2CC2)CCC314 (stereo partly drawn) = 8.91 µM (active)
• CC(N)[C@H](O)c1ccc(O)c(O)c1 (stereo partly drawn) = inactive
• NCCCP(=O)(O)O = inactive
• COc1ccc2c(c1)[C@@]13CCCC[C@H]1[C@@H](C2)NCC3 = 3.55 µM (active)
• C[N+]1(C)CCN(c2ccccc2)CC1 = inactive
• CC(N)Cc1c[nH]c2ccc(OCc3cccs3)cc12 (stereo not drawn) = 7.94 µM (active)
• CCCN(CCC)[C@@H]1CCc2cccc(O)c2C1 = 3.55 µM (active)
• O=C1CC[C@@]2(O)C3Cc4ccc(O)c5c4C2(CCN3CC2CC2)[C@H]1O5 (stereo partly drawn) = inactive

* * *

Molecular target: Cytochrome P450 1A2 (Homo sapiens)
Assay: p450-cyp1a2 (AID 410)
Conditions: recombinant CYP1A2, luciferin-ME demethylation, luminescence; series mostly up to 57 µM
Results filed as inconclusive are left out. The source made the active and inactive calls. Calls follow the shape of the full dose curve.
Outcome codes: yes for active, no for inactive

- NC(=O)c1cc(N2CC2)c([N+](=O)[O-])cc1[N+](=O)[O-]: no
- Clc1cc(I)cc(Cl)c1NC1=NCCN1: yes
- C[C@@H]1O[C@H](C[N+](C)(C)C)CS1: no
- CCCN(CCC)C1Cc2cc(OC)c(OC)cc2C1: no
- O=[N+]([O-])c1cc(O)c(O)c([N+](=O)[O-])c1: no
- O=P(O)(O)C(Cl)(Cl)P(=O)(O)O: no
- O=c1ccc2[nH]cc(C3=CCNCC3)c2[nH]1: no

* * *

Biological target: RecQ-like DNA helicase BLM (Homo sapiens) (UniProt P54132)
Sequence (P54132 whole entry, looked up): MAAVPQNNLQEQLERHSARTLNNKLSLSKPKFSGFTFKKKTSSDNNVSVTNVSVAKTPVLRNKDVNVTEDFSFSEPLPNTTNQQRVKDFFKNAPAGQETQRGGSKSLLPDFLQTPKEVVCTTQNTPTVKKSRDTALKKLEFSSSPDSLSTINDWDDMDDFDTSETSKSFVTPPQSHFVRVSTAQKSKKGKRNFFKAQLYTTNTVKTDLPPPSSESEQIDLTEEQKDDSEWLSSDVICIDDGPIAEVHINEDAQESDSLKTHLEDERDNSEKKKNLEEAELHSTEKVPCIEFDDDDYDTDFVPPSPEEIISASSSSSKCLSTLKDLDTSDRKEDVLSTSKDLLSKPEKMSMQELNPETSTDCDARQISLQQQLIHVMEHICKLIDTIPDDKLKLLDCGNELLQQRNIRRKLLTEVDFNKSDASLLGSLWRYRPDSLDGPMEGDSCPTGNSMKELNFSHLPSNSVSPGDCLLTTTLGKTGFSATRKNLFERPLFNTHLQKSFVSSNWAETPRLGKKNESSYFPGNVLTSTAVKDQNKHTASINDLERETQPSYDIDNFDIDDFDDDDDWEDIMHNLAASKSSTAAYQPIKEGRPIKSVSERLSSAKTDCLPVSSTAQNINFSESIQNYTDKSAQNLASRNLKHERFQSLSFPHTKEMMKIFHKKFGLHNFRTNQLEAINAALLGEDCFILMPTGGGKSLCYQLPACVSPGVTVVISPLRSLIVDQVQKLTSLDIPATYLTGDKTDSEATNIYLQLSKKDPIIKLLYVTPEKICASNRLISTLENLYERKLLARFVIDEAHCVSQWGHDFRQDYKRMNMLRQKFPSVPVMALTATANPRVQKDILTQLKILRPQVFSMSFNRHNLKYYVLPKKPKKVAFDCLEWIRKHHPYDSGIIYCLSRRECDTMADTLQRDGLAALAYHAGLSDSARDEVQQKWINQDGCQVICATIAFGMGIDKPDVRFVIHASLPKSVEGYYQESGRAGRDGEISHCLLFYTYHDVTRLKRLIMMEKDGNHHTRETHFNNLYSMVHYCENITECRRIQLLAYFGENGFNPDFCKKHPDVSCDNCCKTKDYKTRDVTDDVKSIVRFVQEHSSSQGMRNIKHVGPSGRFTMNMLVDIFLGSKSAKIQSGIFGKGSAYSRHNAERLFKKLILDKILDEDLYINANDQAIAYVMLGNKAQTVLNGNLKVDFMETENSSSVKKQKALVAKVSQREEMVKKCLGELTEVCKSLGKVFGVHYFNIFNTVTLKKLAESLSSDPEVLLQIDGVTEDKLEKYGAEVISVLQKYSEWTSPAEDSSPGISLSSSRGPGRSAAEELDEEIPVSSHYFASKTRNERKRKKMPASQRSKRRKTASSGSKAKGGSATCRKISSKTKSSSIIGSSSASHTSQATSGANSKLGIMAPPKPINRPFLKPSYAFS
Test: qHTS Validation Assay for Inhibitors of Bloom's syndrome helicase (BLM) (AID 2364)
Conditions: BLM helicase DNA unwinding, fluorescence, in vitro; series mostly up to 57.1 µM
Results filed as inconclusive are left out. The source made the active and inactive calls. Calls come from the whole dose curve; as a rule, active = well fitted inhibition curve with a large enough effect; inconclusive = small, poorly fitted or top-dose-only effect; inactive = no such curve, though single readings can be large or run the other way.
Outcome codes: active, inactive

• NC(Cc1cc(O)c(O)cc1O)C(=O)O (stereo unspecified) = active
• CCCN(CCC)[C@@H]1CCc2cccc(O)c2C1 = inactive
• CN(N=O)c1ccc(O)c(O)c1 = active
• NC(N)=Nc1ccc2[nH]c3c(c2c1)C[C@@]1(O)[C@H]2Cc4ccc(O)c5c4[C@@]1(CCN2CC1CC1)[C@H]3O5 = inactive
• CCn1cnc2c(Nc3cccc(Cl)c3)nc(N[C@@H]3CCCC[C@@H]3N)nc21 = inactive
• COc1ccc2c(c1)C13CCCCC1C(C2)N(C)CC3 (stereo unspecified) = inactive
• COc1ccc2[nH]c3c(c2c1)CCNC3 = inactive
• CC(C)CC(NP(=O)(O)O[C@@H]1O[C@@H](C)[C@H](O)[C@@H](O)[C@H]1O)C(=O)NC(Cc1c[nH]c2ccccc12)C(=O)O (stereo partly specified) = inactive
• COc1cc(CC(C)N)c(OC)cc1I (stereo unspecified) = inactive
• Cc1c2ccncc2c(C)c2c1[nH]c1ccccc12 = inactive
• O=[N+]([O-])c1cc(O)c(O)c([N+](=O)[O-])c1 = inactive
• C=CCN1CC[C@]23c4c5ccc(O)c4O[C@@H]2/C(=N/N=C2\CC[C@@]4(O)C6Cc7ccc(O)c8c7[C@@]4(CCN6CC=C)[C@@H]2O8)CC[C@@]3(O)C1C5 = inactive
• O=S1(=O)N(CCN2CC=C(c3c[nH]c4cc(F)ccc34)CC2)c2cccc3c2N1CCC3 = inactive
• CN(N=O)c1cc(O)ccc1O = active
• NC(=O)COc1c(F)cc(SCCNS(=O)(=O)c2ccccc2)cc1F = inactive
• CCOC(=O)c1ncn2c1[C@@H]1CCCN1C(=O)c1cc(OC)ccc1-2 = inactive
• C[C@H](Cc1ccc2c(c1)OC(C(=O)O)(C(=O)O)O2)NC[C@H](O)c1cccc(Cl)c1 = inactive
• C[N+]1(C)CCOC(O)(c2ccc(-c3ccc(C4(O)C[N+](C)(C)CCO4)cc3)cc2)C1 (stereo unspecified) = inactive
• COc1ccc(CNC(=O)/C=C/c2ccc3[nH]cc(CCN(C)C)c3c2)cc1 = inactive
• CCCN(CCC)CCc1c[nH]c2ccc(C(N)=O)cc12 = inactive
• Oc1ccc2c3c1O[C@H]1c4oc5ccccc5c4C[C@@]4(O)C(C2)N(CC2CC2)CCC314 (stereo partly specified) = inactive

Values compiled from PubChem BioAssay (NCATS).
